Reported IC50 values for the following compounds.
Target: human TREX2 (residues M44-A279) (Homo sapiens (Human), UniProt Q9BQ50)
Sequence (Q9BQ50 whole entry, the tested form may be a part): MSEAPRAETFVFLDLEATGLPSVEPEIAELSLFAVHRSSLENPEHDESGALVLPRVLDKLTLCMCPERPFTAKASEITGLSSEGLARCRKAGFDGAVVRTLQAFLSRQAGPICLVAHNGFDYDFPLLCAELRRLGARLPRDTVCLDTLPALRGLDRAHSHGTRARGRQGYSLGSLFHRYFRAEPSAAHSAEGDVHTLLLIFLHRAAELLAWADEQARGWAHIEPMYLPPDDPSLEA
Experiment: TREX2 Biochemical Assay (fluorescence assay measuring degradation of dsDNA substrate)
Details: 2.5 nM TREX2, 60 nM dsDNA substrate, 25 minutes at room temperature

| compound | IC50 |
| --- | --- |
| Cn1c(C(NC(=O)OCc2ccccc2)c2ccccc2)nc(C(=O)Nc2cnoc2)c(O)c1=O (stereo not drawn) [Example 23] | 1 to 10 µM |
| Cc1c(Br)cccc1-c1nc(C(=O)Nc2cnoc2)c(O)c(=O)n1C [Example 5] | 1 to 10 µM |
| Cn1c(-c2cccc(Br)c2)nc(C(=O)Nc2cnoc2)c(O)c1=O [Example 10] | 1 to 10 µM |
| Cn1c(C2(COCc3ccccc3)CCCN(C(=O)OC(C)(C)C)C2)nc(C(=O)Nc2cnoc2)c(O)c1=O (stereo not drawn) [Example 52] | 1 to 10 µM |
| Cc1cc(Br)cc(-c2nc(C(=O)Nc3cnoc3)c(O)c(=O)n2C)c1 [Example 1] | 1 to 10 µM |

Here is another compound to look at.
Specify IC50 for Cn1c(C2CCCN(C(=O)OC(C)(C)C)C2)nc(C(=O)Nc2cnoc2)c(O)c1=O (stereo not drawn) [Example 13] and stop.
10 to 100 µM

Entry source: patent US12172990B2
